subjectOfTest: T1, human GPC3 on CHO-K1-human GPC3 cells (clone CHOK1-hGPC3.2B5) (human, UniProt P51654 25-554)
T1 construct: whole, on cells; Stably transfected CHO-K1 clone 2B5
protocolText: FACS on CHOK1-hGPC3.2B5 cells;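 further: flow cytometry binding of chimeric antibodies to the cells, read out as mean fluorescence intensity, with the half-maximal concentration derived by curve fitting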
outcomeMeasure: Max MFI (MFI)
Numbers only, in MFI.

| binder | reportedMeasurement |
| --- | --- |
| F1.92.17 human-murine chimeric antibody (antibody, human IgG1, kappa, V domains shown) VH: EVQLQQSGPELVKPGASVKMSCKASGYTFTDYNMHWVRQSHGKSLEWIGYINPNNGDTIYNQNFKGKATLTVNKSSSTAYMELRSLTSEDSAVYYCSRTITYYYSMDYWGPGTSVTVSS VL: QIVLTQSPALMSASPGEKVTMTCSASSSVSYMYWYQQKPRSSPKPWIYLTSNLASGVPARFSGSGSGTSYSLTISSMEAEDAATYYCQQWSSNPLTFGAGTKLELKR | 9600 |
| F2.154.1 human-murine chimeric antibody (antibody, human IgG1, kappa, V domains shown) VH: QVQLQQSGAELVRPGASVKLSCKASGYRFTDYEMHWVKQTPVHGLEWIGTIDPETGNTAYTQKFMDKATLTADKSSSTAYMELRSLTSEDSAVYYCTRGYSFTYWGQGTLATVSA VL: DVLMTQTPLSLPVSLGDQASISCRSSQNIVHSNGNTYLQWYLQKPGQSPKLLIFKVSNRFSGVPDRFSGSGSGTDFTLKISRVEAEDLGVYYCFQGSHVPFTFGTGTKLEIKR | 26700 |
| F2.92.1 human-murine chimeric antibody (antibody, human IgG1, kappa, V domains shown) VH: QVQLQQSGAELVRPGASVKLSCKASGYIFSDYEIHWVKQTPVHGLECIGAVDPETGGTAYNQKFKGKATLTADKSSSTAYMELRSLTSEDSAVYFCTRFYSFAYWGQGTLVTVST VL: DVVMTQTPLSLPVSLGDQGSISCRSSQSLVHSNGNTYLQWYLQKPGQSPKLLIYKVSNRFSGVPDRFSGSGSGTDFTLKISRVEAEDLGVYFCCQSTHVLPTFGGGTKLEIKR | 29400 |
| F1.73.9 human-murine chimeric antibody (antibody, human IgG1, kappa, V domains shown) VH: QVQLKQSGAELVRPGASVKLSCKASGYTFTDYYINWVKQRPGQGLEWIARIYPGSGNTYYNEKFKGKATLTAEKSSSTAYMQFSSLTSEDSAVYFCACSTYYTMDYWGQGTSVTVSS VL: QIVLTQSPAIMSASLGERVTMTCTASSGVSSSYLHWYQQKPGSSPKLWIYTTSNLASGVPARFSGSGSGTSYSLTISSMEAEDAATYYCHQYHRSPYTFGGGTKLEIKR | 8850 |
| F1.62.9 human-murine chimeric antibody (antibody, human IgG1, kappa, V domains shown) VH: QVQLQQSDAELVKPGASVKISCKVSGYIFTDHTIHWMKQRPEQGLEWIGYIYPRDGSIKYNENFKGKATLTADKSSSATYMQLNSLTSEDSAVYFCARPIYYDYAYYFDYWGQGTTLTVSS VL: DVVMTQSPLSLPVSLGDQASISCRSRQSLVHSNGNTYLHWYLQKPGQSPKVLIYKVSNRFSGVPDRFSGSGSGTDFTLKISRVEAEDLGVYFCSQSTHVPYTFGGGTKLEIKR | 2160 |

Look up and report measured Max MFI for this entry: F4.26.1 human-murine chimeric antibody (antibody, human IgG1, kappa, V domains shown) VH: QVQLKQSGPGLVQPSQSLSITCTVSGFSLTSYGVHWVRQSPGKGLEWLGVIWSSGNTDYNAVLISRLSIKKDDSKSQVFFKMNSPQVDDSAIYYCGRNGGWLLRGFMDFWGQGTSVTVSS VL: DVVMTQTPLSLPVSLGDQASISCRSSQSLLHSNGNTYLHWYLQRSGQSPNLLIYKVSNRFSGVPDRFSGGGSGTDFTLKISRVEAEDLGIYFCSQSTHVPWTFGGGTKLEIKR
2810
